Ref: patent US9266940

- TARGET_SYSTEM: T1, human GLP-1 receptor (human, UniProt P43220 24-463)
- T1 construct: whole, on cells; Used as purified plasma membranes of the stably transfected BHK cell line, not as intact cells; also called hGLP-1
- EXPERIMENT: SPA displacement assay; IC50 at 2.0% HSA over IC50 at 0.001% HSA
Numbered stars: 1 amine (or outer) side, 2 acyl side, 3 side chain; on linkers, the order of the positions; unused ones are H or OH. Square brackets hold non-standard residues; d marks the D form. Side chains are listed from the residue outwards. Ends that are not written are not given here. * marks the point of attachment. Decanoyl(10-(4-HOOC-PhO)) = O=C(O)c1ccc(OCCCCCCCCCC(=O)*)cc1; γGlu = O=C(O)[C@H](CCC(=O)[*:2])N[*:1]; C14 diacid = O=C(O)CCCCCCCCCCCCC(=O)*; AEEA = NCCOCCOCC(=O)O; Aib = CC(C)(N)C(=O)O
Values of Ratio [(IC50/nM) high HSA]/[(IC50/nM) low HSA] greater than or equal to 200 map to 1; values below map to 0.

1. HAEGTFTSDVSSYLEEQAARK([AEEA-AEEA-γGlu-Decanoyl(10-(4-HOOC-PhO))])FIEWLVRGK([AEEA-AEEA-γGlu-Decanoyl(10-(4-HOOC-PhO))])GEG = 1
2. HAEGTFTSDVSSYLEK([γGlu-AEEA-AEEA-C14 diacid])QAARK([γGlu-AEEA-AEEA-C14 diacid])FIAHLVG (also called 14) = 1
3. HAEGTFTSDVSSYLEEQK([AEEA-AEEA-γGlu-C14 diacid])VRK([AEEA-AEEA-γGlu-C14 diacid])FIAWLVG (also called 27) = 0
4. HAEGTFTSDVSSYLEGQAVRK([AEEA-AEEA-γGlu-Decanoyl(10-(4-HOOC-PhO))])FIEWLVRGK([AEEA-AEEA-γGlu-Decanoyl(10-(4-HOOC-PhO))])GQ (also called 12) = 1
5. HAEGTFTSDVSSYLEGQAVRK([AEEA-AEEA-γGlu-C14 diacid])FIAHLVQGRK([AEEA-AEEA-γGlu-C14 diacid]) (also called 16) = 0
6. H[Aib]EGTFTSDVSSYLEK([AEEA-AEEA-γGlu-C14 diacid])QAVRK([AEEA-AEEA-γGlu-C14 diacid])FIAHLVRGRG = 0
7. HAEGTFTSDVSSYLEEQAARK([AEEA-AEEA-γGlu-Decanoyl(10-(4-HOOC-PhO))])FIAWLVRGK([AEEA-AEEA-γGlu-Decanoyl(10-(4-HOOC-PhO))]) (ends and bridges not checked) = 0
8. HAEGTFTSDVSSYLEGQAARK([AEEA-AEEA-γGlu-Decanoyl(10-(4-HOOC-PhO))])FIEWLVRGK([AEEA-AEEA-γGlu-Decanoyl(10-(4-HOOC-PhO))])GE = 1
